assay: Effect of concentration on the stability of the solution (purity over time); settings: 0.01 wt % in 50% ethanol, 25° C.
Please go through the items and note down their Purity(%) at Day 28.
One number for each entry, in %.

Solved cases (2 shown):
CCOC(=O)c1ccccc1 [Ethyl benzoate, reference compound]; 95.3
CC(C)OC(=O)c1ccccc1 [Isopropyl benzoate, reference compound]; 98.2

Required: Purity(%) at Day 28, one value per compound below.
1. CC(C)OC(=O)C(N)Cc1ccccc1 (stereo not shown) [Isopropyl 2-amino-3-phenylpropanoate, reference compound]
2. CC(C)(C)OC(=O)C(N)Cc1ccccc1 (stereo not shown) [t-Butyl 2-amino-3-phenylpropanoate, reference compound]

Outgoing:
95.1
35.2
